B1: P2RY14 (parent)
chain: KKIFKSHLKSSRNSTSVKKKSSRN

- Variants of: B1
- Experiment: protein stability index of a GFP-peptide fusion (GPS, HEK-293T) (PSI 1-6); higher = more stable;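 also: lentivirally expressed fusions sorted by FACS into six bins by GFP to DsRed ratio, PSI derived from sequencing read proportions per bin multiplied by bin number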
- Assay conditions: c terminus: a fixed tail appended
Parameter measured: protein stability index
I only need the number, thanks.

// known answers, use as guide
>  <Biosequence>
KKIFKSHLDSSRNSTSVKKKSSRN [K9D]

>  <protein stability index>
4.05

$$$$
>  <Biosequence>
KKIFKSHLKSSRNSLSVKKKSSRN [T15L]

>  <protein stability index>
3.98

$$$$
>  <Biosequence>
KKIFKSHLKSSKNSTSVKKKSSRN [R12K]

>  <protein stability index>
4.03

$$$$
>  <Biosequence>
KKIFKSHLKSSRNSTSVDKKSSRN [K18D]

>  <protein stability index>
3.98

$$$$
>  <Biosequence>
KKIFKSHLKSNRNSTSVKKKSSRN [S11N]

>  <protein stability index>
3.96

$$$$

Query :: What does the record list as protein stability index for KKIFKSHLKSSRNSTSVKKKSSVN [R23V] ?
Result :: 4.1

Query :: What does the record list as protein stability index for KKIFKSHLKSYRNSTSVKKKSSRN [S11Y] ?
Result :: 3.37

Query :: What does the record list as protein stability index for KKIFKSHLKSSRISTSVKKKSSRN [N13I] ?
Result :: 4.15

Query :: What does the record list as protein stability index for KKIFKSHLKWSRNSTSVKKKSSRN [S10W] ?
Result :: 3.46

Query :: What does the record list as protein stability index for KKIFKSHLGSSRNSTSVKKKSSRN [K9G] ?
Result :: 4.01

Query :: What does the record list as protein stability index for KKIFKSHLKSSRNSTSVKKKSSRD [N24D] ?
Result :: 4.29

Query :: What does the record list as protein stability index for KKIFKSHIKSSRNSTSVKKKSSRN [L8I] ?
Result :: 4.16

Query :: What does the record list as protein stability index for KKIFKSHDKSSRNSTSVKKKSSRN [L8D] ?
Result :: 4.58

Attribution: the supplement of paper PMC10567573
